meta.source: the supplement of paper PMC12764529

The reader will find reported folding stability dG unfold values listed item by item below.
assay: folding stability dG unfold from chymotrypsin proteolysis; higher = more stable
reportedProperty: folding stability dG unfold (kcal/mol)

>>> recordedvalue("SAGGSMTTTTVTVTDPAGNTTTYTFPSSVPLEEIVEAVSKALGRPVTVLSVTTDPSGTTTVTLAVPGSAGGS [r8_285_JUSTAS]")
5.13
>>> recordedvalue("SMKVVKLYTDPEGRVVIEITLPKPDGTPVSEEEAKAIADEIAAELKPKYPNATFEITYDPKTGVVTITIGSA [r9_485_JUSTAS]")
2.51
>>> recordedvalue("SRIKITVKPKPDGNFYIKIWFPNNGKPFIFPIKNPDAMDEARDDPGQTIEVPEDYLRSLFPDNFTDVEIVSA [r9_390_TrROS]")
1.16
>>> recordedvalue("SAGGSAGGSAGGEVITVKRPDGTPFDVTAVLSEDPVVPLLTVEATDDGPVVTLDVPASLLSAGGSAGGSAGG [r7_236_JUSTAS]")
0.207
>>> recordedvalue("SAFRIKIELWNPNGKPQEHTFPVPPGDPDKLVEEIEDEVQKHHPNDGYKMRAEILEVTPNGWVTIRIWYSAG [r14_622_TrROS]")
3.01
>>> recordedvalue("SAGGSAGDKVVTVTATFTTTDPNGNEITIIAPITFLNGEGTAVIDAKAFNPTGELIAEATITVPIGSAGGSA [r15_967_TrMRF]")
2.34
>>> recordedvalue("SAGGSAGGSAGMIVLFPLEEKKFIIYDPETGKVEEIEGTPEEVLEYAKKKYPDKEVYLLPSAGGSAGGSAGG [r11_614_TrMRF]")
5.19
>>> recordedvalue("SAGGSAGGSAGGVGKDKPVIIKIKIKRKVYGLNTPELIAEEEEEIVVVVHPDVNPEKIKPSAGGSAGGSAGG [r7_591_TrMRF]")
2.34
>>> recordedvalue("SAGDALKEAAKPGEEVTVRLRLTLTFTTETFTDDDGRERTVETVTVTVELEARVVAVDPETGELVIELRSAG [r5_5_TrROS_Hall]")
4.19
>>> recordedvalue("SAGKLVVPILLEFPPGATLEEAKEAVEEAVEKLKESFPNAPDIEIKLVDVKVFKTEDDRYLVLALIEVGSAG [r5_985_TrMRF]")
4.51
>>> recordedvalue("SAGGSLPELLKLAKELAKKLGAKDLTAKESGEITIKSPENITITVSTEDGEPVVTINNTSTSSTIPLSAGGS [r16_296_JUSTAS]")
-0.185
>>> recordedvalue("SAGGSALAEKAKELALEKGYDPVKVTYDPKTGTLTMTAKPPGGKEVKMTFTIDEDTITITTTPLTKSAGGSA [r15_561_JUSTAS]")
2.95
>>> recordedvalue("SAGGSASVSVTELSPEERAALEAAGVEVPDDRPRVVETRTVTPAGGAVVTVRVLPEPPLSPEELAASAGGSA [r15_322_JUSTAS]")
0.311
>>> recordedvalue("SAGMPVEIPLVIRLTRYRDLPDGPELAEVRELPLPLRADPSELDNPELLAFIREALEKLPDEIREVEIASAG [r5_849_TrMRF]")
0.757
>>> recordedvalue("SAGGSAGGSAMVTVTILSEDTTDSPRTYTVLFPAEGKALPLPFPADASEAEVRARALELLASAGGSAGGSAG [r3_142_JUSTAS]")
0.673
>>> recordedvalue("SAGSMVLTEDKEFEVDYVLPDGTRLTEPVKVKVKTTTVFLKNNSSLVLTFTTVTLTDPKGNKVTFSGSVSAG [r5_257_JUSTAS]")
2.97
>>> recordedvalue("SAGGMKTYTVTVEREVPDPSSDKWVYSTETLTIPYNVDPKTGTTPEEVAEELKAALPPDVLRVEFTDESAGG [r13_335_JUSTAS]")
0.468
>>> recordedvalue("SANGKEYTFTIEIRVRDPENGQPWTIRITVPIWYDPDDGKLDIDIDVTPTPGMPKEWAERIAKEIIEAISAG [r14_152_TrROS]")
3.95
>>> recordedvalue("SAGGSAGGSATIRIPWDKIKDALEEHDMTVTNIEPNPGGNPWVEIEVNGTPEQREKIQEALKSAGGSAGGSA [r18_175_TrROS]")
0.255
>>> recordedvalue("SMKPGAEITIEPFPDGMYKITLPDGRERIFSPNGIAIEITPNKIKIEMFHPGKPIMEMEVEIPPPDPNDPSA [r9_901_TrROS]")
0.771
>>> recordedvalue("SAGGSAMVDKTMTEEEARAFAEASGDPRVTVEPVENPNNDPNAPKKWRITVDGSGTPGSTILFTSPSAGGSA [r15_428_JUSTAS]")
-0.928
>>> recordedvalue("SAGGEEEAVEKPFYQLPEKKPLKTVPMSREEALALARENPDLGILYAEEDGKLWKVDAETGTIEPLGSAGGS [r16_214_JUSTAS]")
1.58
>>> recordedvalue("SAMTISVSETPDTGSLTVPMTLEPDTVEEVVEEVAKEIAPEEAEVSIEVTEVVPHPDSVTVTAKITVRPSAG [r14_345_JUSTAS]")
0.361
>>> recordedvalue("SAGEKPEKPPEVTITITSVKVERLPDGTVVVEVEAEIEVDGVTLTVRARFVYRDGKLFLEVEVRLEPLPSAG [r5_267_TrROS_Hall]")
5.47
>>> recordedvalue("SAGGSAGGSAGGMKVKAYIFENGKLKEIELSEEELKELLKKLPNARILIEVDGKKLELPASAGGSAGGSAGG [r7_188_TrROS_Hall]")
3.79
>>> recordedvalue("SAGGSAGGSAGGELKAKFETFPSPYGKVILAEAEFEEPNLLAAIVIDEDGVPHLLVVSPDSAGGSAGGSAGG [r7_187_TrMRF]")
0.858
>>> recordedvalue("SAGGSAGGSAGMTLVKTYERFPETGTVVERLSAREPDGPTVPLEVTKVRPVAGEEPVPLLSAGGSAGGSAGG [r11_750_JUSTAS]")
-0.665
